# Method: Cytotoxicity in normal cell line (MTT)
# Assay context: human, HaCaT keratinocyte cells
# Description: To determine the cytotoxicity of the peptides produced by the method of Example 1 in normal cell line, cytotoxicity was measured by using human keratinocyte cell line (HaCaT cell line, Dr. N E. Fusenig, Heidelberg, Germany). Specifically, HaCaT cells, which have been cultured in DMEM medium containing 10% FBS (fetal bovine serum), were aliquoted in a microtiter plate to have 2×10^5 cells per well. […]
Ends that are not written are not given here.
Each entry below carries its reported viability at 24 h, 50 µM.

{"Substance": "GLNALKKVFQGIHEAIKKINNHVQ-NH2 [Pse-18L-K]", "viability at 24 h, 50 µM [%]": 100}
{"Substance": "WLNALKKVFQGIHEAIKLINNHVQ-NH2 [Pse-Anal1]", "viability at 24 h, 50 µM [%]": 13.6}
{"Substance": "GLNALKKVFQGIHEAIKLINNHVQ-NH2 [Pseudin-2]", "viability at 24 h, 50 µM [%]": 100}
{"Substance": "LNALKKVFQGIHEAIKLI-NH2 [Pse-T1]", "viability at 24 h, 50 µM [%]": 98.8}
{"Substance": "LNALKKVFQGIHEAIKKI-NH2 [Pse-T3]", "viability at 24 h, 50 µM [%]": 100}
{"Substance": "GLNALKKVSQGIHEAIKLINNHVQ-NH2 [Pse-Anal5]", "viability at 24 h, 50 µM [%]": 96.3}

###

# Method: Cytotoxicity in normal cell line (MTT)
# Assay context: human, HaCaT keratinocyte cells
Ends that are not written are not given here.
Parameter: viability at 24 h, 12.5 µM

{"Substance": "GLNALKKVFQGIHEAIKLINNHVQ-NH2 [Pseudin-2]", "Parameter": "viability at 24 h, 12.5 µM", "Result": "100%"}
{"Substance": "LNALKKVFQGIHEAIKKI-NH2 [Pse-T3]", "Parameter": "viability at 24 h, 12.5 µM", "Result": "100%"}
{"Substance": "GLNALKKVFQGIHEAIKKINNHVQ-NH2 [Pse-18L-K]", "Parameter": "viability at 24 h, 12.5 µM", "Result": "100%"}
{"Substance": "GLNALKKVSQGIHEAIKLINNHVQ-NH2 [Pse-Anal5]", "Parameter": "viability at 24 h, 12.5 µM", "Result": "100%"}
{"Substance": "WLNALKKVFQGIHEAIKLINNHVQ-NH2 [Pse-Anal1]", "Parameter": "viability at 24 h, 12.5 µM", "Result": "26.8%"}
{"Substance": "LNALKKVFQGIHEAIKLI-NH2 [Pse-T1]", "Parameter": "viability at 24 h, 12.5 µM", "Result": "100%"}

###

Each entry below carries its reported viability at 24 h, 3.13 µM.
# Method: in vitro
# Assay context: human, HaCaT keratinocyte cells, Cell survival ability
# Procedure: To determine the cytotoxicity of the peptides produced by the method of Example 1 in normal cell line, cytotoxicity was measured by using human keratinocyte cell line (HaCaT cell line, Dr. N E. Fusenig, Heidelberg, Germany). Specifically, HaCaT cells, which have been cultured in DMEM medium containing 10% FBS (fetal bovine serum), were aliquoted in a microtiter plate to have 2×10^5 cells per well. […]
Ends that are not written are not given here.

{"Substance": "ALNALKKVSQGIHEAIKLIANHVQ-NH2 [Pse-Anal7]", "Unit annotation": "%", "viability at 24 h, 3.13 µM": 100}
{"Substance": "WLNALKKVFQGIHEAIKLIWNWVQ-NH2 [Pse-Anal3]", "Unit annotation": "%", "viability at 24 h, 3.13 µM": 55.4}
{"Substance": "WLNALKKVFQGIHEAIKLIWNHVQ-NH2 [Pse-Anal2]", "Unit annotation": "%", "viability at 24 h, 3.13 µM": 81.3}
